# TARGET OF ASSAY: CSF1R (Homo sapiens, UniProt P07333)
# Sequence (P07333 20-972, species assumed): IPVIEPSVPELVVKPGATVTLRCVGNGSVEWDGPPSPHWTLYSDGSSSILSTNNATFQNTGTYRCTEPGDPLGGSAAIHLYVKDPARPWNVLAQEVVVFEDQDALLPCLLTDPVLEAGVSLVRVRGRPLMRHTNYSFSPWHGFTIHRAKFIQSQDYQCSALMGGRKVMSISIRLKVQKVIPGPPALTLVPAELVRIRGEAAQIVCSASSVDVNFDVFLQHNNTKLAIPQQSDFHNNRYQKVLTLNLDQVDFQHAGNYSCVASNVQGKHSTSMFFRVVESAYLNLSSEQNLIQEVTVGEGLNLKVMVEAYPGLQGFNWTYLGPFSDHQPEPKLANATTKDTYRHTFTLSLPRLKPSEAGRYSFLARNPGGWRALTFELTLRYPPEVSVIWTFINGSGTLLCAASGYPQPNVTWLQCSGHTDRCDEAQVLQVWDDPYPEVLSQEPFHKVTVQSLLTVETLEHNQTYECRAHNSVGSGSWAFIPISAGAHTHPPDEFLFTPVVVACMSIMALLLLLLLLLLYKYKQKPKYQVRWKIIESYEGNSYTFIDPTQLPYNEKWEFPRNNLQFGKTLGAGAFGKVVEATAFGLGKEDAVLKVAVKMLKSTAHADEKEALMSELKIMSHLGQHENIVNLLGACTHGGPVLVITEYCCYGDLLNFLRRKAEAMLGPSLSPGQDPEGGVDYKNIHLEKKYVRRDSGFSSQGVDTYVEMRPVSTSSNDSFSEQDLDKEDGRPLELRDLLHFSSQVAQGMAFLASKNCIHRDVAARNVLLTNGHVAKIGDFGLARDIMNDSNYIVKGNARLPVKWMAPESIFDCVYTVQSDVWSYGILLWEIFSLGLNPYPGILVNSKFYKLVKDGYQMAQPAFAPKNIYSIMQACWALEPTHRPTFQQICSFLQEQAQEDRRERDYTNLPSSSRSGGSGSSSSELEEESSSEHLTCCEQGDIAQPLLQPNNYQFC
pKd: −log10 of the molar value.
MEASURED PARAMETER: pKd

*Q* Entry Cc1ccc(NC(=O)c2ccc(CN3CCN(CCOCCOCCOCCN=[N+]=[N-])CC3)c(C(F)(F)F)c2)cc1NC(=O)c1cccc(-c2cnn(C)c2)c1 [CSF1R-E analogue 1] has what pKd?
*A* ~7.89
